The values you see were collected from patent US8530667B2.

# System: Setaria faberi (SETFA)
# experimental.protocol: Example B pre-emergence herbicidal activity, glasshouse pot test
# Format: in vivo
# condition: 312 h, Rate 250 g/ha, evaluated after 13 days, read-out: Pre-Emergence Activity SETFA (100=total damage to plant; 0=no damage to plant)
property.name: pest or weed control at 250 g/ha (%)
Just the number please, in %, no unit attached.

A selection of reference data follows.
compound: Cc1sc(-c2ccc(OC(F)F)cc2)nc1C1C(=O)[C@@H]2[C@H](C1=O)[C@H]1CC[C@@H]2O1 (stereo partly shown)
measured.on: Setaria faberi (SETFA)
pest or weed control at 250 g/ha, %: 100
//
compound: Cc1sc(-c2ccc(OC(F)F)cc2F)nc1C1C(=O)[C@@H]2[C@H](C1=O)[C@H]1CC[C@@H]2O1 (stereo partly shown)
measured.on: Setaria faberi (SETFA)
pest or weed control at 250 g/ha, %: 100
//
compound: CCc1sc(-c2ccc(Cl)cc2Cl)nc1C1C(=O)[C@@H]2[C@H](C1=O)[C@H]1CC[C@@H]2O1 (stereo partly shown)
measured.on: Setaria faberi (SETFA)
pest or weed control at 250 g/ha, %: 100

Value of measured pest or weed control at 250 g/ha for the entry CCc1sc(-c2ccc(Br)cc2)nc1C1C(=O)[C@@H]2[C@H](C1=O)[C@H]1CC[C@@H]2O1 (stereo partly shown) : 90

* * *

# Test system: Alopecurus myosuroides (ALOMY)
# experimental.protocol: Example B post-emergence herbicidal activity, glasshouse pot test
# Format: in vivo
# condition: 312 h, rate 1000 g/ha, evaluated after 13 days, read-out: Post-emergence activity ALOMY (100=total damage to plant; 0=no damage to plant)
Property: pest or weed control at 1000 g/ha; scope: individual compounds
Answer with the figure and its unit, nothing else.

Below, each entry is followed by its recorded pest or weed control at 1000 g/ha result.
compound: COC(=O)c1ccc(-c2cc(C3C(=O)[C@@H]4[C@H](C3=O)[C@H]3CC[C@@H]4O3)c(C)s2)cc1 (stereo partly shown) [Compound T19]
pest or weed control at 1000 g/ha: 10%
--
compound: Cc1sc(-c2cc(C(F)(F)F)n(C)n2)cc1C1C(=O)[C@@H]2[C@H](C1=O)[C@H]1CC[C@@H]2O1 (stereo partly shown) [Compound T18]
pest or weed control at 1000 g/ha: 20%
--
compound: CCc1sc(-c2ccc(Cl)cc2)cc1C1C(=O)[C@@H]2[C@H](C1=O)[C@H]1CC[C@@H]2O1 (stereo partly shown) [Compound T17]
pest or weed control at 1000 g/ha: 100%

Attention now turns to another entry.
The compound identified as COc1ccc(-c2nc(C3C(=O)[C@@H]4[C@H](C3=O)[C@H]3CC[C@@H]4O3)c(C)s2)cc1 (stereo partly shown) [Compound T21] registered its pest or weed control at 1000 g/ha at 100%

* * *

# Tested on: Avena fatua (AVEFA)
# experimental.protocol: Example B pre-emergence herbicidal activity, glasshouse pot test
# Assay type: in vivo
# condition: 312 h, Rate 250 g/ha, evaluated after 13 days, read-out: Pre-Emergence Activity AVEFA (100=total damage to plant; 0=no damage to plant)
# maps each entry to its pest or weed control at 250 g/ha
Please give a number only; it is taken to be in %.

compound: CCc1sc(-c2ccc(Br)cc2C)nc1C1C(=O)[C@@H]2[C@H](C1=O)[C@H]1CC[C@@H]2O1 (stereo partly drawn)
observed: 100
--
compound: CCc1sc(-c2ccc(Cl)cc2Cl)nc1C1C(=O)[C@@H]2[C@H](C1=O)[C@H]1CC[C@@H]2O1 (stereo partly drawn)
observed: 60

What the record says about Cc1sc(-c2ccc(OC(F)F)cc2Cl)nc1C1=C(OC(=O)C(C)(C)C)[C@@H]2[C@H](C1=O)[C@H]1CC[C@@H]2O1 (racemic) : pest or weed control at 250 g/ha is 50
